Molecular target: Dual specificity protein kinase CLK2 (Homo sapiens) (UniProt P49760)
Sequence (P49760 whole entry, looked up): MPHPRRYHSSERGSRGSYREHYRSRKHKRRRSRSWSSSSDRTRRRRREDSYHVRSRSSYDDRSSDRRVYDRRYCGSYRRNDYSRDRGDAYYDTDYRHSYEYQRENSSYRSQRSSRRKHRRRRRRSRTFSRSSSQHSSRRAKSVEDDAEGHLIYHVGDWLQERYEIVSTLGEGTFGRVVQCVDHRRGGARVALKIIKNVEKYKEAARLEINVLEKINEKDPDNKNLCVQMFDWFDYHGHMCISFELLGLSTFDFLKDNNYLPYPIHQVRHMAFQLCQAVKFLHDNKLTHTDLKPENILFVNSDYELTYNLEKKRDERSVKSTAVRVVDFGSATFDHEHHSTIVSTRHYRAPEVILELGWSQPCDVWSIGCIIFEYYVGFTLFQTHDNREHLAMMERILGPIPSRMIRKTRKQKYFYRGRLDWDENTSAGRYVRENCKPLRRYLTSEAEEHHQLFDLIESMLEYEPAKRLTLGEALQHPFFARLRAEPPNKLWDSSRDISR
Conditions: at 1 µM
Measurement Label: residual activity (%)
Please give a number only; it is taken to be in %.

QUERY: Need residual activity of O=C1NC(=O)/C(=C/c2ccc3c(c2)OC(F)(F)O3)S1 , thanks.
RESULT: 116

QUERY: Need residual activity of COc1ccc(S(=O)(=O)N(CCO)c2ccccc2CN(C)C/C=C/c2ccc(Cl)cc2)cc1 , thanks.
RESULT: 127

QUERY: Need residual activity of O=C1Nc2ccc(Br)cc2/C1=C\c1cc2c([nH]1)CCCC2 , thanks.
RESULT: 106

QUERY: Need residual activity of Oc1ccc(Nc2nc(-c3ccc(Cl)cc3)cs2)cc1 , thanks.
RESULT: 118

QUERY: Need residual activity of O=C1NC(=O)/C(=C\c2ccc3nccnc3c2)S1 , thanks.
RESULT: 43

QUERY: Need residual activity of COc1ccc(CNc2nc(N(CCO)CCO)nc3c2ncn3C(C)C)cc1 , thanks.
RESULT: 48

QUERY: Need residual activity of NC(=O)c1ccc2[nH]c(-c3ccc(Oc4ccc(Cl)cc4)cc3)nc2c1 , thanks.
RESULT: 101

QUERY: Need residual activity of CCOc1cc2ncnc(Nc3cccc(Br)c3)c2cc1OCC , thanks.
RESULT: 102

QUERY: Need residual activity of CN(C)CCCn1cc(C2=C(c3c[nH]c4ccccc34)C(=O)NC2=O)c2ccccc21 , thanks.
RESULT: 14

QUERY: Need residual activity of Nc1cccc(-c2cc3c(Oc4cccc(O)c4)ncnc3[nH]2)c1 , thanks.
RESULT: 93

QUERY: Need residual activity of COc1cc2ncnc(Nc3ccc(Oc4ccccc4)cc3)c2cc1OC , thanks.
RESULT: 108
